test: Cmax in mouse brain at 20 mg/kg, ip measured for 24 hrs by LC-MS/MS analysis; format: ADME, organism-based; set-up: dose 20 mg/kg, time 24 hrs, route ip; conditions: brain, read-out: Cmax
Endpoint Label: Cmax (ng/g)

COc1ccc(OC)c(COc2cc(NC(=O)c3ccc4c(c3)OCO4)ccc2NS(C)(=O)=O)c1	680

* * *

test system: T98G; assay: Growth inhibition of AR-overexpressing human T98G cells measured after 48 hrs by MTT assay; type: functional, cell-based
Measured IC50 by item
Endpoint Label: IC50 (nM)

CCc1ccc(C(=O)Nc2ccc(NS(C)(=O)=O)c(OCc3cc(OC)ccc3OC)c2)cc1	3850
COc1ccc(OC)c(COc2cc(NC(=O)c3cccc(C(F)(F)F)c3)ccc2NS(C)(=O)=O)c1	423
COc1ccc(OC)c(COc2cc(NC(=O)c3cc(OC)c(OC)c(OC)c3)ccc2NS(C)(=O)=O)c1	218
CCOc1cccc(C(=O)Nc2ccc(NS(C)(=O)=O)c(OCc3cc(OC)ccc3OC)c2)c1	38.4
COc1ccc(OC)c(COc2cc(NC(=O)c3ccccc3C)ccc2NS(C)(=O)=O)c1	306

* * *

tested on: T98G; experiment: Growth inhibition of AR-overexpressing human T98G cells measured after 48 hrs by MTT assay; format: functional, cell-based
pIC50: −log10 of the molar value.
Measured pIC50 by item
Endpoint Label: pIC50

COc1ccc(OC)c(COc2cc(NC(=O)c3ccc(-c4ccccc4)cc3)ccc2NS(C)(=O)=O)c1	6.34
COc1ccc(OC)c(COc2cc(NC(=O)c3ccc(C(F)(F)F)c(F)c3)ccc2NS(C)(=O)=O)c1	5.32
COc1ccc(OC)c(COc2cc(NC(=O)c3ccc([N+](=O)[O-])cc3)ccc2NS(C)(=O)=O)c1	5.92
COc1ccc(OC)c(COc2cc(NC(=O)c3ccc(C)cc3)ccc2NS(C)(=O)=O)c1	6.67
COc1ccc(OC)c(COc2cc(NC(=O)c3cccc(C#N)c3)ccc2NS(C)(=O)=O)c1	5.30
COc1ccc(OC)c(COc2cc(NC(=O)c3cccs3)ccc2NS(C)(=O)=O)c1	5.46
COc1ccc(OC)c(COc2cc(NC(=O)c3ccc(Br)cc3)ccc2NS(C)(=O)=O)c1	6.83
COc1ccc(OC)c(COc2cc(NC(=O)OCCOCCOCCOC(=O)Nc3ccc(NS(C)(=O)=O)c(OCc4cc(OC)ccc4OC)c3)ccc2NS(C)(=O)=O)c1	5.26
COc1ccc(OC)c(COc2cc(NC(=O)c3cccc(I)c3)ccc2NS(C)(=O)=O)c1	6.89
COc1cccc(C(=O)Nc2ccc(NS(C)(=O)=O)c(OCc3cc(OC)ccc3OC)c2)c1	6.66
COc1ccc(OC)c(COc2cc(NC(=O)c3ccc(N)cc3)ccc2NS(C)(=O)=O)c1	5.44
COc1ccc(OC)c(COc2cc(NC(=O)c3cccc(Cl)c3)ccc2NS(C)(=O)=O)c1	7.19
COc1ccc(OC)c(COc2cc(NC(=O)OCCOC(=O)Nc3ccc(NS(C)(=O)=O)c(OCc4cc(OC)ccc4OC)c3)ccc2NS(C)(=O)=O)c1	5.64
COc1ccc(OC)c(COc2cc(NC(=O)c3cccc(Br)c3)ccc2NS(C)(=O)=O)c1	5.57
COc1ccc(OC)c(COc2cc(NC(=O)c3ccc(Cl)c([N+](=O)[O-])c3)ccc2NS(C)(=O)=O)c1	6.24
COc1ccc(OC)c(COc2cc(NC(=O)c3ccc(OC(F)(F)F)cc3)ccc2NS(C)(=O)=O)c1	6.05
